This collection of values is drawn from patent US9073955B2.

Target: Human TRPA1 (Homo sapiens, UniProt O75762)
Construct: expressed in transfected cells; host or cells: CHO cells (grown with 400 μg/ml G-418)
Sequence (O75762 whole entry): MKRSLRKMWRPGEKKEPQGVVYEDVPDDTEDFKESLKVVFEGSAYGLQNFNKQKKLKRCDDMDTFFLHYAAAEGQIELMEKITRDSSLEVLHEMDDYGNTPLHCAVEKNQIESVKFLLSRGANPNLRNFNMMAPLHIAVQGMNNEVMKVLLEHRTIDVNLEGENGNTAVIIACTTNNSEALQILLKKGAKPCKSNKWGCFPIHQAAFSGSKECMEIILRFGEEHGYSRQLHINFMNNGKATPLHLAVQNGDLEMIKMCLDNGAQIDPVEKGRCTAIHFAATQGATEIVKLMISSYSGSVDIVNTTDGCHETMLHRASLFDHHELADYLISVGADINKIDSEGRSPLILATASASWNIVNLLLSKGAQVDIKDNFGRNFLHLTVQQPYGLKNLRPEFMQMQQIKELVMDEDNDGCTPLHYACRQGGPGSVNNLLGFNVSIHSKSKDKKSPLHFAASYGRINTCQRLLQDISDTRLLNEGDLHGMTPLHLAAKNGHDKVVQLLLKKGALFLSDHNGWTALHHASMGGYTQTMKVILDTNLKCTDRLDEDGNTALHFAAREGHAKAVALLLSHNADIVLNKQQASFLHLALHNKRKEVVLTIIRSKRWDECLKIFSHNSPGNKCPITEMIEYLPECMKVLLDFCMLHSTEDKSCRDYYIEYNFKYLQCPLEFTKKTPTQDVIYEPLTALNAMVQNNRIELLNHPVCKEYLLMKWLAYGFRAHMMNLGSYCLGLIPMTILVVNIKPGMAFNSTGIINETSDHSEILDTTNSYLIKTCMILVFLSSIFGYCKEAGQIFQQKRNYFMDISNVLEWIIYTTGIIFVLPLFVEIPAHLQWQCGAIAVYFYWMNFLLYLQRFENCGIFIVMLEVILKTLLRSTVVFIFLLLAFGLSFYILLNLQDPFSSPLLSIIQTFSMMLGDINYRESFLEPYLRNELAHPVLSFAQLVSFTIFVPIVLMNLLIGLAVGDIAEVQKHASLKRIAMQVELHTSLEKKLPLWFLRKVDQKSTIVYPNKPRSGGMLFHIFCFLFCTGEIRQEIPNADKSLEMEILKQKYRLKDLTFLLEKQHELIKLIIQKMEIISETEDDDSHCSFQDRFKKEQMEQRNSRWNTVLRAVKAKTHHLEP
Test: 45Calcium uptake assay: inhibition of AITC induced cellular uptake of radioactive calcium
Format: cell-based
Conditions: CHO, 1.0 μM; human TRPA1 expressing CHO cells, AITC 30 μM; read-out: Percentage inhibition at 1.0 μM
Where a name gives a salt, the structure may show the parent alone.
parameterMeasured: inhibition at 1 µM (%)
Give the quantity in %, number only.

compound	units	number
Cn1c(=O)c2c(CC(=O)/N=c3\scc(-c4ccc(F)c(C(F)(F)F)c4F)n3COP(=O)(O)O)csc2n(C)c1=O	%	75.3

QUERY: Please state recorded inhibition at 1 µM (tested on Human TRPA1 (Homo sapiens, UniProt O75762)) of Cc1oc2c(c1CC(=O)/N=c1\scc(-c3ccc(OC(F)(F)F)c(Cl)c3)n1COC(=O)[C@@H](N)C(C)C)c(=O)n(C)c(=O)n2C.Cl [Example 21, hydrochloride]
RESULT: 93.8

QUERY: Please state recorded inhibition at 1 µM (tested on Human TRPA1 (Homo sapiens, UniProt O75762)) of CC(C)[C@H](N)C(=O)OCn1c(-c2ccc(F)c(C(F)(F)F)c2F)cs/c1=N\C(=O)Cc1csc2c1c(=O)n(C)c(=O)n2C [Example 5, hydrochloride]
RESULT: 98.6

QUERY: Please state recorded inhibition at 1 µM (tested on Human TRPA1 (Homo sapiens, UniProt O75762)) of Cn1nc2c(c1CC(=O)/N=c1\scc(-c3ccc(F)c(C(F)(F)F)c3F)n1COP(=O)(O)O)c(=O)n(C)c(=O)n2C
RESULT: 29.5

###

The reader will find reported pIC50 values listed item by item below.
Molecular target: Human TRPA1 (Homo sapiens, UniProt O75762)
Assay: 45Calcium uptake assay: inhibition of AITC induced cellular uptake of radioactive calcium
Conditions: human TRPA1 expressing CHO cells, AITC 30 μM
pIC50: −log10 of the molar value. Structures can show the parent of a compound that is named as a salt.

Use these answered entries as a reference point.
compound	pIC50
Cc1oc2c(c1CC(=O)/N=c1\scc(-c3ccc(C(F)(F)F)c(F)c3F)n1COP(=O)(O)O)c(=O)n(C)c(=O)n2C	> 7.00
Cl.Cn1c(=O)c2c(CC(=O)/N=c3\scc(-c4ccc(F)c(C(F)(F)F)c4F)n3COC(=O)CN)csc2n(C)c1=O [Example 3, hydrochloride]	> 7.00

QUERY: # input compound: Cn1c(=O)c2c(CC(=O)/N=c3\scc(-c4ccc(F)c(C(F)(F)F)c4F)n3COC(=O)[C@@H]3CCCN3)csc2n(C)c1=O [Example 8, hydrochloride] ; wanted: its pIC50
RESULT: > 7.00

###

The reader will find reported inhibition at 1 µM values listed item by item below.
Biological target: Human TRPA1 (Homo sapiens)
Construct: expressed in transfected cells; host or cells: CHO cells (grown with 400 μg/ml G-418)
Experiment: 45Calcium uptake assay: inhibition of AITC induced cellular uptake of radioactive calcium
Assay type: cell-based
Details: 1.0 μM; human TRPA1 expressing CHO cells, AITC 30 μM; read-out: Percentage inhibition at 1.0 μM
Counter-ions that a name gives are not always drawn.
Report the figure along with its unit, number first.

QUERY: # input molecule: Cc1oc2c(c1CC(=O)/N=c1\scc(-c3ccc(OC(F)(F)F)c(Cl)c3)n1COC(=O)[C@@H](N)Cc1ccccc1)c(=O)n(C)c(=O)n2C [Example 24, hydrochloride] ; wanted: its inhibition at 1 µM
RESULT: 98.1%

###

The reader will find reported inhibition at 10 µM values listed item by item below.
Target: Human TRPA1 (Homo sapiens, UniProt O75762)
Construct: expressed in transfected cells; host or cells: CHO cells (grown with 400 μg/ml G-418)
Test: 45Calcium uptake assay: inhibition of AITC induced cellular uptake of radioactive calcium
Assay type: cell-based
Settings: CHO, 10.0 μM; human TRPA1 expressing CHO cells, AITC 30 μM; read-out: Percentage inhibition at 10.0 μM
Structures can show the parent of a compound that is named as a salt.
Report the figure along with its unit, number first.

compound	inhibition at 10 µM
Cn1c(=O)c2c(CC(=O)/N=c3\scc(-c4ccc(F)c(C(F)(F)F)c4F)n3COP(=O)(O)O)csc2n(C)c1=O	99.3%
Cc1oc2c(c1CC(=O)/N=c1\scc(-c3ccc(OC(F)(F)F)c(Cl)c3)n1COP(=O)(O)O)c(=O)n(C)c(=O)n2C	97.8%
CC(C)[C@H](N)C(=O)OCn1c(-c2ccc(F)c(C(F)(F)F)c2F)cs/c1=N\C(=O)Cc1csc2c1c(=O)n(C)c(=O)n2C [Example 5, hydrochloride]	99.9%
Cc1oc2c(c1CC(=O)/N=c1\scc(-c3ccc(OC(F)(F)F)c(Cl)c3)n1COC(=O)[C@@H](N)C(C)C)c(=O)n(C)c(=O)n2C.Cl [Example 21, hydrochloride]	99.9%

Shift focus to the following entry.
QUERY: # input compound: Cn1nc2c(c1CC(=O)/N=c1\scc(-c3ccc(F)c(C(F)(F)F)c3F)n1COP(=O)(O)O)c(=O)n(C)c(=O)n2C ; wanted: its inhibition at 10 µM
RESULT: 92.4%

###

Biological target: Human TRPA1 (Homo sapiens)
Construct: expressed in transfected cells; host or cells: CHO cells (grown with 400 μg/ml G-418)
Test: 45Calcium uptake assay: inhibition of AITC induced cellular uptake of radioactive calcium
Assay type: cell-based
Conditions: 10.0 μM; human TRPA1 expressing CHO cells, AITC 30 μM; read-out: Percentage inhibition at 10.0 μM
Counter-ions that a name gives are not always drawn.
parameterMeasured: inhibition at 10 µM (%)
Give the quantity in %, number only.

Use these answered entries as a reference point.
molecule	systemName	parameterMeasured	units	number
Cn1c(=O)c2c(CC(=O)/N=c3\scc(-c4ccc(C(F)(F)F)c(F)c4)n3COP(=O)(O)O)csc2n(C)c1=O	Human TRPA1 (Homo sapiens)	inhibition at 10 µM	%	99.8
CC[C@H](C)[C@H](N)C(=O)OCn1c(-c2ccc(F)c(C(F)(F)F)c2F)cs/c1=N\C(=O)Cc1csc2c1c(=O)n(C)c(=O)n2C.Cl [Example 7, hydrochloride]	Human TRPA1 (Homo sapiens)	inhibition at 10 µM	%	99.6
Cc1oc2c(c1CC(=O)/N=c1\scc(-c3ccc(C(F)(F)F)c(F)c3F)n1COP(=O)(O)O)c(=O)n(C)c(=O)n2C	Human TRPA1 (Homo sapiens)	inhibition at 10 µM	%	99.3

QUERY: # input molecule: Cc1oc2c(c1CC(=O)/N=c1\scc(-c3ccc(OC(F)(F)F)c(Cl)c3)n1COC(=O)C(C)(C)C)c(=O)n(C)c(=O)n2C ; wanted: its inhibition at 10 µM
RESULT: 96.7

QUERY: # input molecule: CC(C)C(=O)OCn1c(-c2ccc(C(F)(F)F)c(F)c2)cs/c1=N\C(=O)Cc1csc2c1c(=O)n(C)c(=O)n2C ; wanted: its inhibition at 10 µM
RESULT: 90.3

QUERY: # input molecule: Cc1oc2c(c1CC(=O)/N=c1\scc(-c3ccc(OC(F)(F)F)c(Cl)c3)n1COC(=O)C1CCNCC1)c(=O)n(C)c(=O)n2C.Cl [Example 23, hydrochloride] ; wanted: its inhibition at 10 µM
RESULT: 97.8

QUERY: # input molecule: CC[C@H](C)[C@H](N)C(=O)OCn1c(-c2ccc(OC(F)(F)F)c(Cl)c2)cs/c1=N\C(=O)Cc1c(C)oc2c1c(=O)n(C)c(=O)n2C [Example 22, hydrochloride] ; wanted: its inhibition at 10 µM
RESULT: 99.6

QUERY: # input molecule: Cn1c(=O)c2c(CC(=O)N=c3scc(-c4ccc(C(F)(F)F)c(F)c4F)n3COP(=O)(O)O)nsc2n(C)c1=O [Example 32, phosphate] ; wanted: its inhibition at 10 µM
RESULT: 81

QUERY: # input molecule: Cl.Cn1c(=O)c2c(CC(=O)/N=c3\scc(-c4ccc(F)c(C(F)(F)F)c4F)n3COC(=O)C3CCNCC3)csc2n(C)c1=O [Example 10, hydrochloride] ; wanted: its inhibition at 10 µM
RESULT: 89.3

QUERY: # input molecule: Cc1sc2c(c1CC(=O)/N=c1\scc(-c3ccc(F)c(C(F)(F)F)c3F)n1COP(=O)(O)O)c(=O)n(C)c(=O)n2C ; wanted: its inhibition at 10 µM
RESULT: 98.5

QUERY: # input molecule: CCc1sc2c(c1CC(=O)/N=c1\scc(-c3ccc(C(F)(F)F)c(F)c3)n1COP(=O)(O)O)c(=O)n(C)c(=O)n2C ; wanted: its inhibition at 10 µM
RESULT: 96.8

QUERY: # input molecule: Cc1oc2c(c1CC(=O)/N=c1\scc(-c3ccc(OC(F)(F)F)c(Cl)c3)n1COC(=O)[C@@H](N)Cc1ccccc1)c(=O)n(C)c(=O)n2C [Example 24, hydrochloride] ; wanted: its inhibition at 10 µM
RESULT: 99.8

QUERY: # input molecule: Cc1oc2c(c1CC(=O)/N=c1\scc(-c3ccc(OC(F)(F)F)c(Cl)c3)n1COC(=O)CN)c(=O)n(C)c(=O)n2C.Cl [Example 20, hydrochloride] ; wanted: its inhibition at 10 µM
RESULT: 96.2
